Please respond with reported kon for every item in the list.
MEASURED ON: T1, Cyno RGMa-His (cynomolgus monkey, UniProt Q9N0A6 54-431, limits assumed)
T1 construct: also called cynomolgus (cyno) monkey RGMa (BIAcore); not shown: His tag
T1 sequence (looked up): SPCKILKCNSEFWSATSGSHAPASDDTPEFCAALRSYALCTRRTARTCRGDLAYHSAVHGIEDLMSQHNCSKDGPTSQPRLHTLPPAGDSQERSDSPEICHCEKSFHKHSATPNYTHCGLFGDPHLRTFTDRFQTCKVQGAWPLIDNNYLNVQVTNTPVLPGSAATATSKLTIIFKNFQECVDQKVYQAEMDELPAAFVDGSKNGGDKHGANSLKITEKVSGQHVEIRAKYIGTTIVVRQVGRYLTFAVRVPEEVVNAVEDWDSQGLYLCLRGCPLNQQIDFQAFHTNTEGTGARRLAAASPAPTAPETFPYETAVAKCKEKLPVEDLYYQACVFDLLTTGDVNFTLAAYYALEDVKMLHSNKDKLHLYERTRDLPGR
TEST NAME: BIAcore
Express it in M⁻¹ s⁻¹; write the number only.

Given item AE12-1-K (antibody, V domains shown, AE12-1 variant; IgG) VH: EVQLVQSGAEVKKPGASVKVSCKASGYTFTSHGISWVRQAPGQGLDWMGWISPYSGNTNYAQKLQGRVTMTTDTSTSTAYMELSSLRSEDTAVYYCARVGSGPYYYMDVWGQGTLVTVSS VL: QSALTQPRSVSGSPGQSVTISCTGTSSSVGDSIYVSWYQQHPGKAPKLMLYDVTKRPSGVPDRFSGSKSGNTASLTISGLQAEDEADYYCKSYAGTDTLFGGGTKVTVL , the value recorded as its kon is 51000

Value of kon reported for the binder AE12-1-L (antibody, V domains shown, AE12-1 variant; IgG; also called AE-12-L) VH: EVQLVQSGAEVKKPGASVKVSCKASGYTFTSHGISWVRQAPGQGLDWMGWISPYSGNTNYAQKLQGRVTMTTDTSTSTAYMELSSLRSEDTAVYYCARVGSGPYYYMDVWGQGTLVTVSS VL: QSALTQPRSVSGSPGQSVTISCTGTSSSVGDSIYVSWYQQHPGKAPKLMLYDVTKRPSGVPDRFSGSKSGNTASLTISGLQAEDEADYYCLSYAGTDTLFGGGTKVTVL is 62000

Recorded result, AE12-1-F (antibody, V domains shown, AE12-1 variant, Cys of VL CDR-L3 replaced; IgG) VH: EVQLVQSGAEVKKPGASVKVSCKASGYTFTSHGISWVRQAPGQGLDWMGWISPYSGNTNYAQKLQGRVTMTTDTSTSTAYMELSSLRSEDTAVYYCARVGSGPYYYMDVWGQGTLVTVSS VL: QSALTQPRSVSGSPGQSVTISCTGTSSSVGDSIYVSWYQQHPGKAPKLMLYDVTKRPSGVPDRFSGSKSGNTASLTISGLQAEDEADYYCFSYAGTDTLFGGGTKVTVL , kon: 44000

FYI, the data here is from patent US20160326240A1.
